assay: Tested for the ability to block NADH dehydrogenase in a preparation of submitochondrial particles obtained from blow fly flight muscle; type: tissue-based, Calliphoridae, Muscle tissue
readout: -Log IC50

C=C(C)[C@H]1Cc2cc(Cn3c(C)nc4ccccc43)ccc2O1: 7.3
C=C(C)[C@H]1Cc2c(ccc(C(=O)n3c(C)nc4ccccc43)c2OC)O1: 6.6
C=C(C)[C@H]1Cc2cc3c(cc2O1)CCNC3Cc1ccc(OC)c(OC)c1 (some centres not stated): 6.76
C=C(C)[C@H]1Cc2c(ccc3c2O[C@@H]2COc4cc(OC)c(OC)cc4[C@@H]2C3=O)O1 [ROTENONE]: 8.7
C=C(C)[C@H]1Cc2c(ccc(Cn3c(C)nc4ccccc43)c2OC)O1: 6.82
COc1ccc(CC2NCCc3cc4c(cc32)C[C@H](C(C)CSc2ccccc2)O4)cc1OC (some centres not stated): 7.9
C=C(C)[C@H]1Cc2cc(C(=O)n3c(C)nc4ccccc43)ccc2O1: 7.82

Reference for the values: ChEMBL document CHEMBL1127703
